The origin of these recorded values is patent EP2666869A1.

- run_description: Sorafenib pharmacokinetic analysis (plasma concentrations, Bayesian estimation of AUC and Cav)
- Format: in vivo, human
- conditions_used: human, plasma, median absolute sorafenib AUC, day 15; all patients; AUC 0 to 12 hours; median [interquartile range]
reported_metric: AUC tau at 12 h (ng·h/mL)
Value expressed in ng·h/mL; do not type the unit.

Find the recorded AUC tau at 12 h belonging to CNC(=O)c1cc(Oc2ccc(NC(=O)Nc3ccc(Cl)c(C(F)(F)F)c3)cc2)ccn1 [sorafenib] and report it.
62000

* * *

- run_description: Sorafenib pharmacokinetic analysis (plasma concentrations, Bayesian estimation of AUC and Cav)
- Format: in vivo, human
- conditions_used: human, plasma, Cumulated sorafenib AUC, day 0 to day 30; patients without Hand Foot Skin Reaction ≥ grade 2; median [interquartile range]
reported_metric: AUC at 720 h (µg·h/mL)
Could you give me the number in µg·h/mL? Just the number is fine.

Endpoint output: AUC at 720 h of CNC(=O)c1cc(Oc2ccc(NC(=O)Nc3ccc(Cl)c(C(F)(F)F)c3)cc2)ccn1 . Value?
2250

* * *

- run_description: Sorafenib pharmacokinetic analysis (plasma concentrations, Bayesian estimation of AUC and Cav)
- Format: in vivo, human
- conditions_used: human, plasma, day 15; females; read-out: median absolute AUC
reported_metric: AUC tau at 360 h (ng·h/mL)
Field format: number, assumed ng·h/mL, no unit text.

Consider the molecule CNC(=O)c1cc(Oc2ccc(NC(=O)Nc3ccc(Cl)c(C(F)(F)F)c3)cc2)ccn1 and give its measured AUC tau at 360 h.
78300

* * *

- run_description: Sorafenib pharmacokinetic analysis (plasma concentrations, Bayesian estimation of AUC and Cav)
- Format: in vivo, human
- conditions_used: human, plasma, Cumulated sorafenib AUC, day 0 to day 30; patients without any toxicity ≥ grade 3; median [interquartile range]
reported_metric: AUC at 720 h
Remember to follow the number with its unit.

Request the reported AUC at 720 h associated with CNC(=O)c1cc(Oc2ccc(NC(=O)Nc3ccc(Cl)c(C(F)(F)F)c3)cc2)ccn1
2250 µg·h/mL

* * *

- run_description: Sorafenib pharmacokinetic analysis (plasma concentrations, Bayesian estimation of AUC and Cav)
- Assay type: in vivo, human
- conditions_used: human, plasma, Cumulated sorafenib AUC, day 0 to day 30; patients with any toxicity ≥ grade 3; median [interquartile range]
reported_metric: AUC at 720 h (µg·h/mL)
Dear colleague, please return just the value in µg·h/mL, with no unit written.

What value of AUC at 720 h has been recorded for this entry: CNC(=O)c1cc(Oc2ccc(NC(=O)Nc3ccc(Cl)c(C(F)(F)F)c3)cc2)ccn1
3500

* * *

- run_description: Sorafenib pharmacokinetic analysis (plasma concentrations, Bayesian estimation of AUC and Cav)
- Type: in vivo, human
- conditions_used: human, plasma, day 30; males; read-out: median absolute AUC
reported_metric: AUC tau at 720 h (ng·h/mL)
Provide only the numeric value, understood in ng·h/mL.

Which AUC tau at 720 h value belongs to CNC(=O)c1cc(Oc2ccc(NC(=O)Nc3ccc(Cl)c(C(F)(F)F)c3)cc2)ccn1 ?
55200
